src = PubChem BioAssay (NCI)

- Tested on: DU-145 prostate
- ASSAY_NOTES: NCI tumour cell line growth inhibition, 48 h
QUANTITY_KIND: TGI (µM)

{"COMPOUND": "O=c1[nH]c2cc(Cl)ccc2nc1/C(=N\\Nc1ccccc1)C(O)c1ccc2c(c1)OCO2 (centres undefined)", "MEASURED_TARGET": "DU-145 prostate", "QUANTITY_KIND": "TGI", "COMPARISON_SYMBOL": ">", "OBS_VALUE": 100}
{"COMPOUND": "O=C1/C(=C/c2ccc(Cl)cc2)CCC1CNc1ccc(Cl)cc1 (centres undefined)", "MEASURED_TARGET": "DU-145 prostate", "QUANTITY_KIND": "TGI", "COMPARISON_SYMBOL": "=", "OBS_VALUE": 31.8}
{"COMPOUND": "Cc1ccc(-c2nc(NCCOCCOCCN)nc(N3CCN(c4ccccn4)CC3)n2)cc1", "MEASURED_TARGET": "DU-145 prostate", "QUANTITY_KIND": "TGI", "COMPARISON_SYMBOL": "=", "OBS_VALUE": 31.1}
{"COMPOUND": "O=C1NC(N2CCCC(CO)C2)=N/C1=C\\c1cccs1 (centres undefined)", "MEASURED_TARGET": "DU-145 prostate", "QUANTITY_KIND": "TGI", "COMPARISON_SYMBOL": ">", "OBS_VALUE": 100}
{"COMPOUND": "Nc1nc(N)c2nc(CN(C=O)c3ccc(C(=O)O)cc3)cnc2n1", "MEASURED_TARGET": "DU-145 prostate", "QUANTITY_KIND": "TGI", "COMPARISON_SYMBOL": ">", "OBS_VALUE": 100}
{"COMPOUND": "Fc1ccccc1CN1COc2c(cc(Cl)c3cccnc23)C1", "MEASURED_TARGET": "DU-145 prostate", "QUANTITY_KIND": "TGI", "COMPARISON_SYMBOL": "=", "OBS_VALUE": 16.4}
{"COMPOUND": "CC1(C)N=C(N)N=C(N)N1c1ccc(CCCC(=O)Nc2ccc(S(=O)(=O)F)cc2)cc1", "MEASURED_TARGET": "DU-145 prostate", "QUANTITY_KIND": "TGI", "COMPARISON_SYMBOL": ">", "OBS_VALUE": 100}
{"COMPOUND": "Cc1cc(N2CCC(N3CCCC3)CC2)nc(/N=C(\\N)Nc2ccc(Cl)c(Cl)c2)n1", "MEASURED_TARGET": "DU-145 prostate", "QUANTITY_KIND": "TGI", "COMPARISON_SYMBOL": "=", "OBS_VALUE": 3.44}
{"COMPOUND": "CC(=O)OCC1OC(OCCCOP(=O)(OCCC#N)OCC2OC(n3cnc4c(N)ncnc43)C(OC(=O)c3ccccc3)C2OC(=O)c2ccccc2)C(OC(C)=O)C(OC(C)=O)C1OC(C)=O (centres undefined)", "MEASURED_TARGET": "DU-145 prostate", "QUANTITY_KIND": "TGI", "COMPARISON_SYMBOL": ">", "OBS_VALUE": 100}

###

- Tested on: BT-549 breast
- ASSAY_NOTES: NCI tumour cell line growth inhibition, 48 h; in the data active = GI50 below about 0.43 µM; inactive = the rest
Outcomes: active, inactive

{"STRUCTURE": "Clc1ccc(C=Nc2ccc(-c3nc4ccccc4[nH]3)cc2)cc1", "MEASURED_TARGET": "BT-549 breast", "CATEGORY_LABEL": "inactive"}
{"STRUCTURE": "CN(C)CCCN1c2ccccc2Sc2ccc(C(F)(F)F)cc21", "MEASURED_TARGET": "BT-549 breast", "CATEGORY_LABEL": "inactive"}
{"STRUCTURE": "S=c1ssnc1-c1cc2ccccc2o1", "MEASURED_TARGET": "BT-549 breast", "CATEGORY_LABEL": "inactive"}
{"STRUCTURE": "Nc1ccc(CC[C@H]2CCC/C=C/[C@@H]3C[C@H](O)C[C@H]3[C@H](O)/C=C/C(=O)O2)cc1", "MEASURED_TARGET": "BT-549 breast", "CATEGORY_LABEL": "active"}

###

- System: M19-MEL melanoma
- ASSAY_NOTES: NCI tumour cell line growth inhibition, 48 h
QUANTITY_KIND: TGI

{"COMPOUND": "COC(=O)c1c(C(=O)OC)c(-c2ccccc2)n(-c2ccccc2)c(=O)c1-c1ccccc1", "MEASURED_TARGET": "M19-MEL melanoma", "OBS_VALUE": "> 100 µM"}
{"COMPOUND": "COC(=O)C(=O)C(C(=O)C(=O)Nc1ccc([N+](=O)[O-])cc1)c1nc2ccccc2[nH]c1=O (configuration not stated)", "MEASURED_TARGET": "M19-MEL melanoma", "OBS_VALUE": "> 100 µM"}
{"COMPOUND": "CC1NOC(=O)C1N=Nc1cccc(Cl)c1 (configuration not stated)", "MEASURED_TARGET": "M19-MEL melanoma", "OBS_VALUE": "91.7 µM"}
{"COMPOUND": "O=c1cc(-c2ccccc2)oc2ccc(Cl)cc12", "MEASURED_TARGET": "M19-MEL melanoma", "OBS_VALUE": "> 100 µM"}
{"COMPOUND": "CCOc1ccc(C2=NN(CC)C(=O)C(C3C(=O)N(c4ccccc4)N=C3C)C2)cc1 (configuration not stated)", "MEASURED_TARGET": "M19-MEL melanoma", "OBS_VALUE": "> 100 µM"}
{"COMPOUND": "O=C(N/C(=C\\c1ccc([N+](=O)[O-])cc1)c1nc2ccccc2s1)c1ccccc1", "MEASURED_TARGET": "M19-MEL melanoma", "OBS_VALUE": "53.9 µM"}
{"COMPOUND": "Nc1cccc(-c2cc(=O)c3cc4c(cc3[nH]2)OCO4)c1", "MEASURED_TARGET": "M19-MEL melanoma", "OBS_VALUE": "> 100 µM"}
{"COMPOUND": "COc1ccc(/C=C/C(=O)c2c(-c3ccccc3)nn(C)c(=O)c2N2CC2C)cc1 (configuration not stated)", "MEASURED_TARGET": "M19-MEL melanoma", "OBS_VALUE": "> 100 µM"}
{"COMPOUND": "COc1cc2c(oc(=O)c3c4occc4cc(OC)c23)c2cccc(O)c12", "MEASURED_TARGET": "M19-MEL melanoma", "OBS_VALUE": "> 100 µM"}
{"COMPOUND": "CC(=O)CCC1(c2ccccc2)OC(=O)C(C#N)=C1c1ccccc1 (configuration not stated)", "MEASURED_TARGET": "M19-MEL melanoma", "OBS_VALUE": "> 100 µM"}
{"COMPOUND": "CC(C)c1ccc(O)c(Cc2cc(C(C)C)cc(Cc3cc(C(C)C)ccc3O)c2O)c1", "MEASURED_TARGET": "M19-MEL melanoma", "OBS_VALUE": "2.99 µM"}
{"COMPOUND": "O=C1/C(=C/c2ccc(Cl)cc2)CCC1CNc1ccc(Cl)cc1 (configuration not stated)", "MEASURED_TARGET": "M19-MEL melanoma", "OBS_VALUE": "> 50.4 µM"}
{"COMPOUND": "N#C[S-].[La+3].c1ccc(-c2ccccn2)nc1.c1ccc(-c2ccccn2)nc1.c1ccc(-c2ccccn2)nc1", "MEASURED_TARGET": "M19-MEL melanoma", "OBS_VALUE": "> 100 µM"}
{"COMPOUND": "COC(=O)CC1(O)C(=O)OCc2c1cc1n(c2=O)Cc2c-1nc1ccccc1c2OC (configuration not stated)", "MEASURED_TARGET": "M19-MEL melanoma", "OBS_VALUE": "> 100 µM"}
{"COMPOUND": "Brc1ccc2[nH]c3c(C4=NCCC4)nccc3c2c1", "MEASURED_TARGET": "M19-MEL melanoma", "OBS_VALUE": "84.4 µM"}
{"COMPOUND": "C/C(=C\\C(=O)Nc1ccc2n[nH]nc2c1)Nc1ccc2n[nH]nc2c1", "MEASURED_TARGET": "M19-MEL melanoma", "OBS_VALUE": "> 100 µM"}
{"COMPOUND": "CCOc1ccc(NC(=O)CC2SC(=Nc3ccc(C)cc3)NC2=O)cc1 (configuration not stated)", "MEASURED_TARGET": "M19-MEL melanoma", "OBS_VALUE": "> 100 µM"}

###

- System: SNB-19 CNS
- ASSAY_NOTES: NCI tumour cell line growth inhibition, 48 h

{"MOLECULE": "CC1(C)N=C(N)N=C(N)N1c1ccc(CCCC(=O)Nc2ccc(S(=O)(=O)F)cc2)cc1", "GI50": "36.5 µM"}
{"MOLECULE": "O=C1C(Cl)=C(Nc2ccc(S(=O)(=O)c3ccc(NC4=C(Cl)C(=O)c5ccccc5C4=O)cc3)cc2)C(=O)c2ccccc21", "GI50": "3.11 µM"}
{"MOLECULE": "N#C[S-].[La+3].c1ccc(-c2ccccn2)nc1.c1ccc(-c2ccccn2)nc1.c1ccc(-c2ccccn2)nc1", "GI50": "54.6 µM"}
{"MOLECULE": "CCCN1C(=O)/C(=C/c2ccc(SC(F)(F)F)cc2)SC1=Nc1ccc(OC)cc1", "GI50": "17.4 µM"}
{"MOLECULE": "CCn1c(-c2nonc2N)nc2ccccc21", "GI50": "> 25 µM"}
{"MOLECULE": "CCN(CC)CCOC(COc1cc(C)cc(C)c1)COc1cc(C)cc(C)c1", "GI50": "2.3 µM"}
{"MOLECULE": "Nc1ncn([C@H]2CC(O)[C@@H](CO)S2)c(=O)n1 (some centres undefined)", "GI50": "16.2 µM"}
{"MOLECULE": "COc1cccc(C2CC(=O)Nc3c2c(C)nn3-c2nc3ccccc3[nH]2)c1OC (centres undefined)", "GI50": "4.07 µM"}
{"MOLECULE": "CCCCNc1ncnc2c1cnn2-c1ccccc1", "GI50": "8.69 µM"}
{"MOLECULE": "CCSC[C@@H]1C[C@](O)(c2ccccc2)[C@@H](c2ccccc2)O1", "GI50": "> 100 µM"}
{"MOLECULE": "COc1ccc(-c2nsc3c2NC(=O)CC3c2ccsc2)cc1 (centres undefined)", "GI50": "1.05 µM"}
{"MOLECULE": "COC(=O)c1c(C)nc(C)c2c1C(=O)C(Br)=C(NCc1ccccc1)C2=O", "GI50": "3.04 µM"}
{"MOLECULE": "COc1cc(-c2nc(-c3ccccc3)c(-c3ccccc3)[nH]2)cc(OC)c1O", "GI50": "20.8 µM"}
{"MOLECULE": "CCCC(=O)Nc1cc(C(=O)N2C[C@H]3C[C@@]34C2=CC(=O)c2[nH]cc(C)c24)n(COC)c1", "GI50": "0.326 µM"}
{"MOLECULE": "Clc1ccc(C=Nc2ccc(-c3nc4ccccc4[nH]3)cc2)cc1", "GI50": "55.6 µM"}
{"MOLECULE": "Nc1nc(SCc2ccccc2CCl)c2[nH]cnc2n1", "GI50": "15.8 µM"}
{"MOLECULE": "CC1[C@@]2(CCC(C)(C)O2)O[C@@H]2C=C3C4CCC5Cc6nc7c(nc6C[C@@]5(C)C4C[C@H](O)[C@@]3(C)[C@]12O)CC1CCC2C3=C[C@H]4O[C@@]5(O[C@@](C)(CO)C[C@@H]5O)C(C)[C@@]4(O)[C@]3(C)[C@@H](O)CC2[C@]1(C)C7 (some centres undefined)", "GI50": "0.041 µM"}
{"MOLECULE": "O=c1c(I)c[nH]cc1I", "GI50": "> 100 µM"}
{"MOLECULE": "S=c1ssnc1-c1cc2ccccc2o1", "GI50": "16.7 µM"}
